Biological target: recombinant homotrimeric HA, A/Egypt/3300-NAMRU3/08 H5N1 (Influenza A virus A/Egypt/3300-NAMRU3/08 (H5N1))
Assay: trimeric HA microarray, transfection set 3
Settings: remark: other sources report otherwise
measurement type: Trimeric HA Binding RLU (RLU)

>>> value_measured("TCN-533 (5256_A17) (antibody, V domains shown) VH: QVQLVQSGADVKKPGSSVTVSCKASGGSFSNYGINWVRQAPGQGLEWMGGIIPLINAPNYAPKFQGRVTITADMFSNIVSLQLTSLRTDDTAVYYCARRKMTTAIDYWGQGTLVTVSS VL: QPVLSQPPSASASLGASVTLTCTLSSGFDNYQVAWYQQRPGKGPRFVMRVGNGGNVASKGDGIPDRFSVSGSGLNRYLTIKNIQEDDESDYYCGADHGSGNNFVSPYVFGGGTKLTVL")
18600
